Taken from patent US20230095167A1.

t/2 diss (complex half-life) reference
Molecular target: T1, recombinant NT-proBMP10 (22-312) (human, UniProt O95393 22-312)
T1 construct: In-house construct; also called pro-peptide BMP10; BMP10(312)
T1 sequence: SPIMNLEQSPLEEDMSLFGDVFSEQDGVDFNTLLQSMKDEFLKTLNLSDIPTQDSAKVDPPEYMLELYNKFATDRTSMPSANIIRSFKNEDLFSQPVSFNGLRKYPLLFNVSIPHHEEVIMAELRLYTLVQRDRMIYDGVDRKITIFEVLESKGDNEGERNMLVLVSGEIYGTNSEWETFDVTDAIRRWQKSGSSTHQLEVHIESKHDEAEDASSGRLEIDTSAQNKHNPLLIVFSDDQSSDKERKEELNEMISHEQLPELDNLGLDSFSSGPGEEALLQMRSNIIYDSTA
Assay: SPR Biacore 8K, 37°C, mAb captured, BMP10(312) as analyte; ln(2)/60*kd
Write down the numeric answer in min and omit the unit.

BINDER: MAB<BMP10>rRb-8G5 HC3/LC5 (p10qz/p10ra)-IgG(SPA) (antibody, V domains shown, Recombinant rabbit monoclonal IgG; also called clone 8G5; VH-8/VL-8) VH: QSLEESGGDLVKPGASLTLTCTASGFSFSSSYWICWVRQAPGKGLEWIACIYAGSSDITYYASWAKGRFTVSKTSSPTVTLQMTSLTAADTATYFCARGRYYVDGYADYYPGDFNLWGPGTLVTVSS VL: DIVMTQTPASVEAAVGGTVTIKCQASQSISSYLAWYQQKSGQPPKLLIYLASTLESGVPSRFKGSGSGTEFTLTISDLECADAATYYCQSYYYSSSSSYGSAFGGGTEVVVK
MEASUREMENT UNIT: min
t/2 diss (complex half-life): 6

Kindly consider the entry below.
Query MAB<BMP10>rRb-14C8 HC2/LC3 (p10th/p10ti)-IgG(SPA) (antibody, V domains shown, Recombinant rabbit monoclonal IgG; also called clone 14C8; VH-5/VL-5) VH: QSVEESGGRLVTPGTPLTLTCTASGIDLSRYAMTWVRQAPGKGLEWIGIIGASSGTWYASWAKGRFTIAKTSTTVDLRITSPTTEDTATYFCARDNGDSKDYAFDPWGPGTLVTVSS VL: IDMTQTPSPVSAAVGDTVTINCQASENIYSFLAWYQQKPGHSPNLLIYFASKLVSGVPSRFKGSGSGTQFTLTISDVQCDDAATYYCQQTYTYSNGDNPFGGGTEVVVK yields t/2 diss (complex half-life) of 10
